# test_target: T1, human CCK-B receptor (human, UniProt P32239 1-447)
# T1 sequence (looked up): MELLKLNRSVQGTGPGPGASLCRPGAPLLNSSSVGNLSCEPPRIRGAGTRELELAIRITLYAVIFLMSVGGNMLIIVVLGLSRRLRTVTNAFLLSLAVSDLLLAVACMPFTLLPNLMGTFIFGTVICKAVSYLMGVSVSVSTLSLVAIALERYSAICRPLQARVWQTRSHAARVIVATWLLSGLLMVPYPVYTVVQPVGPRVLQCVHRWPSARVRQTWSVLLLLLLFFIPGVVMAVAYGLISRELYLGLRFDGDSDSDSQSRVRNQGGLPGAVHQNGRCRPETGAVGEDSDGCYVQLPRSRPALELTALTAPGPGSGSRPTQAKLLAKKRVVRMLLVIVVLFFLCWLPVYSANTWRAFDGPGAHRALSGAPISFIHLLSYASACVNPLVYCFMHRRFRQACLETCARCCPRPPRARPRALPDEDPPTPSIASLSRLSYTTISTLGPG
# assay_explanation: cell-based or functional assay
Square brackets hold non-standard residues; d marks the D form. Ends that are not written are not given here. Orn = NCCC[C@H](N)C(=O)O
Property: hCCK-B R EC50 (p-ERK); scope: individual binders
Quick note: give the figure in nM, leave out the unit.

Worked examples, 2 binders total:
HGEGTFTSELSKYLEEEAVRLFIEFLK[Peg3][Orn]YGWLDF-NH2 [[Glu9,Leu14,Phe25,Tyr13]Exendin-4(1-27)-Peg3-Orn-[Leu4]Gastrin6] = 8.8
HGEGTFTSDLSKQMEEEAV[Orn]LFIEWLKN[Peg3][Peg3]YGWLDF-NH2 [[Orn20]Exendin-4(1-28)-Peg3-Peg3-[Leu4]Gastrin6] = 15

Tell me hCCK-B R EC50 (p-ERK) reported for HGEGTFTSDLSKYMEEEAVRLFIEWLKN[Peg3][Peg3]YGWLDF-NH2 [[Tyr13]Exendin-4(1-28)-Peg3-Peg3-[Leu4]Gastrin6]
12

Tell me hCCK-B R EC50 (p-ERK) reported for HGEGTFTSELSKYLEEEAVRLFIEFLK[Peg3][Peg3]YGWLDF-NH2 [[Glu9,Leu14,Phe25,Tyr13]Exendin-4(1-27)-Peg3-Peg3-[Leu4]Gastrin6]
20

Tell me hCCK-B R EC50 (p-ERK) reported for HGEGTFTSDLSKQLEEEAVRLFIEWLKNYGWXDF (Nle at position 4 of the Gastrin6 moiety; C-terminal amide) [[Leu14]Exendin-4(1-28)-[Nle4]Gastrin6]
24

Tell me hCCK-B R EC50 (p-ERK) reported for HGEGTFTSDLSKQMEEEAVRLFIEWLKNYGWTDF (C-terminal amide) [Exendin-4(1-28)-[Thr4]Gastrin6]
58

Tell me hCCK-B R EC50 (p-ERK) reported for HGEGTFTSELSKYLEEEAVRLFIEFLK[Peg3]WLDF-NH2 [[Glu9,Leu14,Phe25,Tyr13]Exendin-4(1-27)-Peg3-[Leu2]Gastrin4]
13
